- measured target: EGFR L858R/T790M (Homo sapiens (Human), UniProt P00533, L858R/T790M)
- Sequence (P00533 25-1210 T790M/L858R): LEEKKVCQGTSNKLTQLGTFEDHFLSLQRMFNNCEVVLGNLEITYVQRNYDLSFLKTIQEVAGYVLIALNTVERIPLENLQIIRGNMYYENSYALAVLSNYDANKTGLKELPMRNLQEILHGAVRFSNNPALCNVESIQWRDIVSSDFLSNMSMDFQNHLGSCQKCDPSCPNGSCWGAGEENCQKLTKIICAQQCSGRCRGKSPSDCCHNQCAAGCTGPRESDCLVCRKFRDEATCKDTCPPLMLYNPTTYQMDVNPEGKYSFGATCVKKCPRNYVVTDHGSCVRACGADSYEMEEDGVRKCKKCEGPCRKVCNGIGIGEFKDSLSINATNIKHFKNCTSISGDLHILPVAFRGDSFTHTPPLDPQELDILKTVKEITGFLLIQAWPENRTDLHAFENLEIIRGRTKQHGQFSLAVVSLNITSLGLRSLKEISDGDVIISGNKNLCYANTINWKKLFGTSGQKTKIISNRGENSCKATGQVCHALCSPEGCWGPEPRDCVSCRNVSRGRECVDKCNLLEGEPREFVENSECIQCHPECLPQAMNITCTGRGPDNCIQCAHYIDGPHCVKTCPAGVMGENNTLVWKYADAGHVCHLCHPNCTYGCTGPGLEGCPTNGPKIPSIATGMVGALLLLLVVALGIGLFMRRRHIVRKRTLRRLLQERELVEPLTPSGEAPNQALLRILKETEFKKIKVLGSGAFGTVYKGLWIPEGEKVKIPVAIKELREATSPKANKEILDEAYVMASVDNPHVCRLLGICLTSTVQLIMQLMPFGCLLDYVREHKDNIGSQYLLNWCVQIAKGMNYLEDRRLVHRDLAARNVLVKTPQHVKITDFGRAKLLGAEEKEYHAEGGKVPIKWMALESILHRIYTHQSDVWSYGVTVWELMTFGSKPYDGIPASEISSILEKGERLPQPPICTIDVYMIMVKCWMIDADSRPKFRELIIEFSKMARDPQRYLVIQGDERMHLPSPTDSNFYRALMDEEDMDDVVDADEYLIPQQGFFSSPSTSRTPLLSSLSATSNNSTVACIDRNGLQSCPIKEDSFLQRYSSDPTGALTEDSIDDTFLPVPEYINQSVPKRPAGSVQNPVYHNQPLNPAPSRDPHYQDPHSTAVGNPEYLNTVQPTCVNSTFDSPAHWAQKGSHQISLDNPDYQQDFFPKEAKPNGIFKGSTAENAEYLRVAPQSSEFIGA
- test name: HTRF-based EGFR biochemical assay (L858R/T790M)
- condition set: 100 μM ATP, enzyme 0.02 nM
pIC50: −log10 of the molar value. Structures can show the parent of a compound that is named as a salt.
measure: pIC50

Some compounds with recorded pIC50:
{"columns": ["compound", "measured target", "pIC50"],
 "data": [
  ["O=C1c2cc(-c3ccc(OC4CNC4)cc3)ccc2CN1C(c1nc2ccccc2[nH]1)c1cc(F)ccc1O (stereo not shown) [Compound 091, dihydrochloride]", "EGFR L858R/T790M (Homo sapiens (Human), UniProt P00533, L858R/T790M)", 8.22],
  ["CN1CCC(c2ccc(-c3ccc4ncn(C(c5cccc(F)c5)c5nc6ccccc6[nH]5)c(=O)c4n3)cc2)CC1 (stereo not shown) [Compound 008, 2,2,2-trifluoroacetate]", "EGFR L858R/T790M (Homo sapiens (Human), UniProt P00533, L858R/T790M)", 8.30]
]}

A. [2H]C(c1nc2ccccc2[nH]1)(c1cc(F)ccc1O)n1ccc2cc(-c3ccc(C4CCN(C)CC4)cc3)ccc2c1=O (stereo not shown)
B. CN1CCC(c2ccc(-c3ccc4c(c3)C(=O)N(C(c3nc5ccccc5[nH]3)c3n[nH]c5c3CCC5)C4)cc2)CC1 (stereo not shown)
API: POST /compare with A and B ; response names the item with higher pIC50. Please respond with the label that marks your chosen entry.
A
(A: 8.70, B: 8.22)

###

- measured target: EGFR L858R (Homo sapiens (Human), UniProt P00533, L858R)
- Sequence (P00533 25-1210 L858R): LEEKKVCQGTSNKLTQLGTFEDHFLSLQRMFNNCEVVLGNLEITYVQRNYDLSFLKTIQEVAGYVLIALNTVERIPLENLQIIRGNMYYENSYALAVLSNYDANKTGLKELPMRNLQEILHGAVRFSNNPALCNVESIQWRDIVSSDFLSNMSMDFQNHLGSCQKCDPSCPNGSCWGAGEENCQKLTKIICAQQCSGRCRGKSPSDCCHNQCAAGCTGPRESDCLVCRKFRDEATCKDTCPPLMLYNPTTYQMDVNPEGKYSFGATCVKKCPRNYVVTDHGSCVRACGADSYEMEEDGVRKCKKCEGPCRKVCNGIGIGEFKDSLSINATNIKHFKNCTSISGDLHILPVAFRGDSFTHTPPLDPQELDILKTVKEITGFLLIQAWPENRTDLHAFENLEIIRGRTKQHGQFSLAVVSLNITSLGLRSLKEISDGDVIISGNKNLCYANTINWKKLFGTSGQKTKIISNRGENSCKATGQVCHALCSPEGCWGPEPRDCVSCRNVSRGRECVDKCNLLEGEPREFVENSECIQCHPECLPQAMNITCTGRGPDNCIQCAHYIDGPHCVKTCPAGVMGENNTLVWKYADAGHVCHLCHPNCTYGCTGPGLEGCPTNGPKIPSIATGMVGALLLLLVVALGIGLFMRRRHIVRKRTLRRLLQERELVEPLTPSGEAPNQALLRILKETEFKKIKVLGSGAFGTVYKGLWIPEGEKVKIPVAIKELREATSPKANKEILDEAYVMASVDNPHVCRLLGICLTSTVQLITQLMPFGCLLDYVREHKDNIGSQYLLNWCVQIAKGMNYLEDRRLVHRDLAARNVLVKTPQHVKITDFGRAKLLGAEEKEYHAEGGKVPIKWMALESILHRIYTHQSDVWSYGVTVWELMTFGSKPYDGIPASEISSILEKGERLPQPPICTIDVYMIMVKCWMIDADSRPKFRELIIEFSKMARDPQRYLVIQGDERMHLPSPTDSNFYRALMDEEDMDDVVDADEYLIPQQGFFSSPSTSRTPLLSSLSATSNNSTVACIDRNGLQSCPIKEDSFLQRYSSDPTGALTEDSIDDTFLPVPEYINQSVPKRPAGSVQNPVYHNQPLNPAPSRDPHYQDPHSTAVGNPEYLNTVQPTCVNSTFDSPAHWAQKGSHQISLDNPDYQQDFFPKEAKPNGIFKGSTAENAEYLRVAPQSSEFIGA
- test name: HTRF-based EGFR biochemical assay (L858R)
- condition set: 100 μM ATP, enzyme 0.1 nM
measure: IC50 (nM)

P. CN1CCC(c2ccc(-c3ccc4c(c3)C(=O)N(C(c3cccc(F)c3)c3nc5ccccc5[nH]3)C4)cc2)CC1 (stereo not drawn)
Q. CN1CCC(c2ccc(-c3ccc4c(c3)C(=S)N([C@H](c3nc5ccccc5[nH]3)c3cc(F)ccc3O)C4)cc2)CC1 (single isomer, unassigned)
R. [2H]C1([2H])c2ccc(-c3ccc(C4CCN(C)CC4)cc3)cc2C(=O)N1C([2H])(c1nc2ccccc2[nH]1)c1cc(F)ccc1O (stereo not drawn)
Ascending by IC50, please. Hello, could you send the labels back in the order asked? Thank you.
R, P, Q
(R: 2.9 nM, P: 26 nM, Q: 219 nM)

###

- measured target: EGFR L858R (Homo sapiens (Human), UniProt P00533, L858R)
- test name: HTRF-based EGFR biochemical assay (L858R)
- condition set: 100 μM ATP, enzyme 0.1 nM
Structures can show the parent of a compound that is named as a salt.
measure: IC50 (nM)

{"columns": ["compound", "measured target", "unit tag", "IC50"],
 "data": [
  ["CN1CCC(c2ccc(-c3ccc4c(c3)C(=S)N(C(c3nc5ccccc5[nH]3)c3cc(F)ccc3O)C4)cc2)CC1 (stereo not drawn) [Compound 078, dihydrochloride]", "EGFR L858R (Homo sapiens (Human), UniProt P00533, L858R)", "nM", 3]
]}

1. CN1CCC(c2ccc(-c3cc(F)c4c(=O)n(C(c5nc6ccccc6[nH]5)c5cc(F)ccc5O)ccc4c3)cc2)CC1 (stereo not drawn)
2. [2H]C(c1nc2ccccc2[nH]1)(c1cc(F)ccc1O)n1ccc2cc(-c3ccc(C4CCN(C)CC4)cc3)cc(F)c2c1=O (stereo not drawn)
API: POST /compare with 1 and 2 ; response names the item with higher IC50. Please respond with the label that marks your chosen entry.
2
(2: 14 nM, 1: 4 nM)

###

- measured target: EGFR L858R/T790M (Homo sapiens (Human), UniProt P00533, L858R/T790M)
- test name: HTRF-based EGFR biochemical assay (L858R/T790M)
- condition set: 100 μM ATP, enzyme 0.02 nM
pIC50: −log10 of the molar value. Where a name gives a salt, the structure may show the parent alone.
measure: pIC50

{"columns": ["molecule", "pIC50"],
 "data": [
  ["CN1CCC(c2ccc(-c3cc(F)c4c(=O)n([C@H](c5nc6ccccc6[nH]5)c5cc(F)ccc5O)ccc4c3)cc2)CC1 (single isomer, unassigned)", 8.52]
]}

I. CN1CCC(c2ccc(-c3ccc4c(=O)n(C(c5nc6c(F)cccc6[nH]5)c5cc(F)ccc5O)ccc4c3)cc2)CC1 (stereo not drawn)
II. CN1CCC(c2ccc(-c3ccc4cn(C(c5nc6c(F)cccc6[nH]5)c5cc(F)ccc5O)nc4c3F)cc2)CC1 (stereo not drawn) [Compound 101, trifluoroacetate]
API: POST /compare with I and II ; response names the item with higher pIC50. Please respond with the label that marks your chosen entry.
II
(II: 9.10, I: 8.40)

###

- measured target: EGFR L858R (Homo sapiens (Human), UniProt P00533, L858R)
- test name: HTRF-based EGFR biochemical assay (L858R)
- condition set: 100 μM ATP, enzyme 0.1 nM
Where a name gives a salt, the structure may show the parent alone.
measure: IC50 (nM)

Some compounds with recorded IC50:
{"columns": ["compound", "unit tag", "IC50"],
 "data": [
  ["CN1CCC(Oc2ccc(-c3ccc4c(c3)C(=O)N(C(c3nc5ccccc5[nH]3)c3cc(F)ccc3O)C4)cc2)CC1 (stereo not shown) [Compound 090]", "nM", 11],
  ["Cc1c[nH]c(C(c2cc(F)ccc2O)N2Cc3ccc(-c4ccc(C5CCN(C)CC5)cc4)cc3C2=O)n1 (stereo not shown) [Compound 085]", "nM", 13],
  ["CN1CCC(c2ccc(-c3ccc4c(c3)C(=S)N([C@@H](c3nc5ccccc5[nH]3)c3cc(F)ccc3O)C4)cc2)CC1 (single isomer, unassigned) [Compound 083]", "nM", 1],
  ["CN1CCC(c2ccc(-c3ccc4ccn(C(c5nc6ccccc6[nH]5)c5cc(F)ccc5O)c(=O)c4c3)cc2)CC1 (stereo not shown) [Compound 063]", "nM", 9],
  ["CN1CCC(F)(c2ccc(-c3ccc4c(c3)C(=O)N(C(c3nc5ccccc5[nH]3)c3cc(F)ccc3O)C4)cc2)CC1 (stereo not shown) [Compound 016, hydrochloride]", "nM", 3],
  ["CN1CCC(c2ccc(-c3ccc4c(=O)n(C(c5nc6c(F)cccc6[nH]5)c5cc(F)ccc5O)ccc4c3)cc2)CC1 (stereo not shown) [Compound 102]", "nM", 6],
  ["COc1c(-c2ccc(C3CCN(C)CC3)cc2)ccc2ncn(C(c3nc4ccccc4[nH]3)c3cc(F)ccc3O)c(=O)c12 (stereo not shown) [Compound 077, dihydrochloride]", "nM", 2],
  ["CN1CCC2(c3ccc(-c4ccc5c(=O)n(C(c6nc7ccccc7[nH]6)c6cc(F)ccc6O)ccc5c4)cc3)CC2C1 (stereo not shown) [Compound 108, dihydrochloride]", "nM", 5],
  ["CN1CCC(c2ccc(-c3cc4nn(C(c5nc6ccccc6[nH]5)c5cc(F)ccc5O)cc4cc3F)cc2)CC1 (stereo not shown) [Compound 118]", "nM", 16],
  ["[2H]C(c1nc2ccccc2[nH]1)(c1cc(F)ccc1O)n1ccc2cc(-c3ccc(C4CCN(C)CC4)cc3)ccc2c1=O (stereo not shown) [Compound 112]", "nM", 3]
]}

a. CN1CCC(c2ccc(-c3cc4nn(C(c5nc6ccccc6[nH]5)c5cc(F)ccc5O)cc4cc3O)cc2)CC1 (stereo not shown) [Compound 097]
b. CN1CCC(c2ccc(-c3ccc4c(c3)C(=O)N(C(c3nc5cccnc5[nH]3)c3n[nH]c5c3CCC5)C4)cc2)CC1 (stereo not shown) [Compound 031]
Would you mind telling me which has the lower recorded IC50 between a and b ? Please respond with the label that marks your chosen entry.
a
(a: 16 nM, b: 45 nM)

###

- measured target: EGFR L858R (Homo sapiens (Human), UniProt P00533, L858R)
- test name: HTRF-based EGFR biochemical assay (L858R)
- condition set: 100 μM ATP, enzyme 0.1 nM
Counter-ions that a name gives are not always drawn.
measure: IC50 (nM)

Some compounds with recorded IC50:
{"columns": ["compound", "unit tag", "IC50"],
 "data": [
  ["CN1CCC(c2ccc(-c3ccc4c(=O)n([C@H](c5nc6ccccc6[nH]5)c5cc(F)ccc5O)ccc4c3)cc2)CC1 (single isomer, unassigned) [Compound 068]", "nM", 756],
  ["CN1CCC(c2ccc(-c3cc(F)c4c(=O)n([C@@H](c5nc6ccccc6[nH]5)c5cc(F)ccc5O)ccc4c3)cc2)CC1 (single isomer, unassigned) [Compound 065]", "nM", 2],
  ["CN1CCC(c2ccc(-c3ccc4ncn(C(c5ccccc5)c5nc6ccccc6[nH]5)c(=O)c4c3F)cc2)CC1 (stereo not drawn) [Compound 003, 2,2,2-trifluoroacetate]", "nM", 9],
  ["CN1CCC(c2ccc(-c3ccc4ncn(C(c5ccccc5)c5nc6ccccc6[nH]5)c(=O)c4c3)cc2)CC1 (stereo not drawn) [Compound 002]", "nM", 17],
  ["CN1CCC(c2ccc(-c3ccc4c(c3F)C(=O)N(C(c3nc5c(F)cccc5[nH]3)c3cc(F)ccc3O)C4)cc2F)CC1 (stereo not drawn) [Compound 081, dihydrochloride]", "nM", 6],
  ["CN1CCC(c2ccc(-c3ccc4c(c3F)C(=O)N(C(c3nc5ccccc5[nH]3)c3cc(F)ccc3O)C4)cc2F)CC1 (stereo not drawn) [Compound 080, dihydrochloride]", "nM", 3],
  ["CN1CCC(c2ccc(-c3ccc4cn(C(c5nc6ccccc6[nH]5)c5cc(F)ccc5O)nc4c3)cc2)CC1 (stereo not drawn) [Compound 100, trifluoroacetate]", "nM", 14]
]}

P. CN1CCC(c2ccc(-c3cnc4c(c3)C(=O)N(C(c3nc5ccccc5[nH]3)c3cc(F)ccc3O)C4)cc2)CC1 (stereo not drawn) [Compound 010]
Q. CCc1c(-c2ccc(C3CCN(C)CC3)cc2)ccc2ncn(C(c3nc4ccccc4[nH]3)c3cc(F)ccc3O)c(=O)c12 (stereo not drawn) [Compound 074, dihydrochloride]
R. CN1CCC(c2ccc(-c3ccc4c(c3)C(=O)N(C(c3nc5ccccc5[nH]3)c3cc(Cl)ccc3O)C4)cc2)CC1 (stereo not drawn) [Compound 044, hydrochloride]
S. O=C1c2cc(-c3ccc(C4CCNCC4)cc3)ccc2CN1C(c1nc2ccccc2[nH]1)c1cc(F)ccc1O (stereo not drawn) [Compound 062, hydrochloride]
T. CN1CCC(c2ccc(-c3ccc4c(=O)n([C@H](c5nc6ccccc6[nH]5)c5cc(F)ccc5O)ccc4c3)cc2)CC1 (single isomer, unassigned) [Compound 115]
Ordering: ascending IC50. Hello, could you send the labels back in the order asked? Thank you.
Q, S, R, P, T
(Q: 2 nM, S: 3 nM, R: 6 nM, P: 12 nM, T: 132 nM)
